- Tested on: SNB-75 CNS
- experiment.notes: NCI tumour cell line growth inhibition, 48 h; in the data active means GI50 below about 0.43 µM; inactive means the rest
Labels: true (active), false (inactive)

>>> discrete_label("CN1C/C=C/CCOc2cccc(c2)-c2ccnc(n2)Nc2cccc(c2)C1")
"true"
>>> discrete_label("Cc1cc(N(CCCl)CCCl)ccc1C=Nc1ccc2ccccc2c1")
"false"
>>> discrete_label("COc1cc(C(=O)N/N=C/c2ccc(N(C)C)cc2)cc(OC)c1OC")
"true"
>>> discrete_label("CN1CCN(Cc2ccc(NC(=O)c3cccc(C#Cc4cnc(N)c5ncccc45)c3F)cc2C(F)(F)F)CC1")
"false"
>>> discrete_label("O=C1c2ccccc2-c2c1c1ccccc1c(=O)n2CCCNCCCCNCCCN1C(=O)c2ccccc2C2C(=O)c3ccccc3C21 (centres undefined)")
"false"
>>> discrete_label("CC(=O)Oc1ccc(/C(=C(\\C)c2ccc(Cl)cc2)c2ccc(OCCN3CCCCC3)cc2)cc1")
"false"
>>> discrete_label("CCN1Cc2nc3sc(C)c(C)c3c(=O)n2C=C1C")
"false"
>>> discrete_label("Oc1cc2ccccc2c(-c2c(O)c(O)cc3ccccc23)c1O")
"false"
>>> discrete_label("O=C1OCC2=C1C(c1ccc(Cl)c(Cl)c1)c1cc3c(cc1N2CCO)CCC3 (centres undefined)")
"true"
